test system: NCI-H23 lung; assay: NCI tumour cell line growth inhibition, 48 h; in the data active = GI50 below about 0.43 µM; inactive = the rest
Write down one outcome, taken from active, inactive

{"COMPOUND": "CC(=O)O[C@H](C[C@H](C(C)C)N(C)C(=O)[C@@H](NC(=O)[C@H]1CCCCN1C)C(C)C)c1nc(C(=O)N[C@@H](Cc2ccccc2)C[C@H](C)C(=O)O)c(CCOCc2ccccc2)s1", "ANSWER_LABEL": "active"}

Query: Please share the test call associated with Cc1cc2c(cc1Cl)SC(=Nc1ccc(Cl)cc1)N(S(=O)(=O)c1ccccc1)S2(=O)=O .
Response: inactive

Query: Please share the test call associated with C=C1C(=O)O[C@H]2[C@H]1CC/C(COC(=O)c1ccc(Cl)nc1)=C\CC[C@@]1(C)O[C@@H]21 .
Response: inactive
